# Experiment Summary: Dissociation constant, pKa of compound measured under acidic conditions by Sirius T3 apparatus based potentiometric titration analysis
# Format: physicochemical
Listed here: items and their measured pKa.
Measured Quantity: pKa

In [3]: df
Out[3]:
         compound_string  readout_value
0   Cc1cccc(/C(N)=N/O)c1           4.97
1  Cc1cccc(C/C(N)=N/O)c1           5.27

* * *

# Experiment Summary: Octanol/water partition coefficient, logP of compound by Sirius T3 apparatus based potentiometric titration analysis
# Assay type: physicochemical
Could you label it Met if measured logP is 2 or higher, and Not met otherwise?

>>> df
                compound_string  classification
0        Cc1cccc(-c2nnn[nH]2)c1         Not met
1  Cc1cccc(CC(=O)NS(C)(=O)=O)c1         Not met
2        Cc1cccc(-c2noc(O)n2)c1         Not met
3        Cc1cccc(Cc2noc(S)n2)c1             Met
4      Cc1cccc(C2=C(O)COC2=O)c1             Met
5        Cc1cccc(-c2noc(S)n2)c1             Met
6        Cc1cccc(Cc2nnn[nH]2)c1         Not met
7        Cc1cccc(Cc2noc(O)n2)c1         Not met
8        Cc1cccc(Cc2nsc(O)n2)c1             Met
9        Cc1cccc(-c2nsc(O)n2)c1             Met

* * *

# Experiment Summary: Dissociation constant, pKa of compound in water by Sirius T3 apparatus based potentiometric titration analysis
# Type: physicochemical
Measured Quantity: pKa

In [3]: df
Out[3]:
          compound_string  measured_quantity  comparator  readout_value
0  Cc1cccc(-c2noc(O)n2)c1                pKa           =           5.12
1      Cc1cccc(CC(N)=O)c1                pKa           >             12
2    Cc1cccc(/C(N)=N/O)c1                pKa           >             12
3   Cc1cccc(C/C(N)=N/O)c1                pKa           >             12
4       Cc1cccc(C(N)=O)c1                pKa           >             12
5      Cc1cccc(CC(=O)O)c1                pKa           =           4.13
6  Cc1cccc(Cc2noc(O)n2)c1                pKa           =           5.59
7       Cc1cccc(C(=O)O)c1                pKa           =           3.99

* * *

# Experiment Summary: Dissociation constant, pKa of compound in DMSO by Sirius T3 apparatus based potentiometric titration analysis
# Format: physicochemical
Listed here: items and their measured pKa.
Measured Quantity: pKa

In [3]: df
Out[3]:
                compound_string  measured_quantity  readout_value
0      Cc1cccc(C2=C(O)COC2=O)c1                pKa           2.95
1        Cc1cccc(-c2nsc(O)n2)c1                pKa           5.99
2  Cc1cccc(CC(=O)NS(C)(=O)=O)c1                pKa           4.63
3        Cc1cccc(-c2noc(S)n2)c1                pKa           2.64
4        Cc1cccc(-c2nnn[nH]2)c1                pKa           4.07
5        Cc1cccc(Cc2nsc(O)n2)c1                pKa           6.35
6        Cc1cccc(Cc2noc(S)n2)c1                pKa           3.19
7        Cc1cccc(Cc2nnn[nH]2)c1                pKa           4.73
